The reported numbers originate from patent US20250115577A1.

experimental system: BCL-2 [G101V] (Homo sapiens (Human), UniProt P10415, G101V)
test protocol: BCL-2 [G101V] TR-FRET Assay (primary PPI inhibition)
stated conditions: 60 min incubation, read-out: BCL2[G101V] IC50
Experimental: Example C. BCL-2 [G101V]TR-FRET Assay The following assay concentrations and times were used: 0.22 ng/μl of BCL-2 (SinoBiological, #10195-H08E1), 5 μL of 1:100 anti-His Tb-labeled donor, 5 μL of 1:100 Dye-labeled acceptor, 5 μL of 1:40 BCL-2 Peptide Ligand (BPS Bioscience, #50223), and 2 μL of 200× test compound, with 60 min incubation time (final concentration of DMSO 0.5%). […]
pIC50: −log10 of the molar value.
parameter measured: pIC50

- molecule: "COc1cccc(CN(C(=O)c2cc(-c3ccc(OC(F)F)cc3C(=O)N3Cc4ccccc4C[C@H]3CN3CCOCC3)n(C)c2C)c2ccc(O)cc2)c1C [Compound 31]"
  parameter measured: "pIC50"
  measured value: "< 6.00"
- molecule: "COc1cccc(CN(C(=O)c2cc(-c3cc(C(F)F)c(Cl)cc3C(=O)N3Cc4ccccc4C[C@H]3CN3CCOCC3)n(C)c2C)c2ccc(O)cc2)c1C [Compound 43]"
  parameter measured: "pIC50"
  measured value: "6.00 to 7.00"

Query molecule follows.
*Q* # get_value(readout='pIC50', item= COc1cccc(CN(C(=O)c2cc(-c3cc(Cl)ccc3C(=O)N3Cc4ccccc4C[C@H]3CN3CCOCC3)n3c2CCCC3)c2ccc(O)cc2)c1C [Compound 4] )
*A* 6.00 to 7.00
